assay: Pharmacokinetics in mice (plasma, HPLC); assay type: in vivo, mouse; settings: female, ND4 Swiss Webster, mouse, plasma, po, 50 mg/kg, vehicle DMSO/peanut oil
Reported Endpoint: Cmax
Hey, just the number and the unit after it is fine.

The measured Cmax associated with CC(=O)c1cc(Nc2cc(C)[n+](C)c(N)n2)cc(C(C)=O)c1 [CNI-0294] reads 410 ng/mL

====

test: Pharmacokinetics in mice (plasma, HPLC); format: in vivo, mouse; settings: female, ND4 Swiss Webster, mouse, plasma, ip, 20 mg/kg, vehicle water
Reported Endpoint: AUC (µg·h/mL)
Quick note: give the figure in µg·h/mL, leave out the unit.

The measured AUC associated with CC(=O)c1cccc(Nc2cc(C)nc(N)n2)c1 reads 0.82

====

test: Pharmacokinetics in mice (plasma, HPLC); assay type: in vivo, mouse; details: female, ND4 Swiss Webster, plasma, ip; mouse, i.p., 50 mg/kg, vehicle DMSO/peanut oil; read-out: tmax (converted)
Reported Endpoint: Tmax (min)
Quick note: give the figure in min, leave out the unit.

The measured Tmax associated with CC(=O)c1cc(Nc2cc(C)[n+](C)c(N)n2)cc(C(C)=O)c1 [CNI-0294] reads 5
